Assay: Stability studies: storage at room temperature and under accelerated storage condition (ATS), purity estimated by HPLC
Assay type: physicochemical
Conditions: Day 14; 25° C. ± 2° C.; properly packed material
Measured purity estimated by HPLC, Day 14 Condition 25° C. ± 2° C. values are reported for all entries that follow.
Endpoint name: purity estimated by HPLC, Day 14 Condition 25° C. ± 2° C.

compound="N#Cc1ccc(C=CC=NC(CCCNC(=N)N)C(=O)O)c(C(F)(F)F)c1 (centres unmarked)" result=99.55
compound=N=C(N)NCCC[C@H](/N=C/C=C/c1ccccc1)C(=O)O result=99.59
compound=N=C(N)NCCC[C@H](/N=C/C=C/c1c(O)cccc1F)C(=O)O result=98.80
compound=N#Cc1ccc(/C=C/C=N/[C@@H](CCCNC(=N)N)C(=O)O)cc1 result=99.50
compound=N=C(N)NCCC[C@H](/N=C/C=C/c1ccc2ccccc2c1)C(=O)O result=98.85

The measurements presented in this section are drawn from patent US20260231945A1.
